system: 126254-015-R-J1-PDC complex spheroid growth, % test/control; assay: Anticancer human tumor 126254-015-R-J1-PDC patient-derived soft tissue sarcoma cell line growth inhibition [Asc]; conditions: compound alone; run of 09/27/2022
Give IC50 for every item shown.

Record CCN1C(C(=O)NC23CCC(C(=O)O)(CC2)CC3)C(c2cccc(Cl)c2F)C2(C(=O)Nc3cc(Cl)ccc32)C12CCCCC2 (configuration not stated) . Reported IC50: > 3 µM

The compound listed as Cc1c(S(C)(=O)=O)c(-c2cc(F)cc(N3CCN(c4ccc(NS(=O)(=O)c5ccc(NC(CCN6CCC(C(=O)OCCCP(=O)(O)O)CC6)CSc6ccccc6)c(S(=O)(=O)C(F)(F)F)c5)cc4)CC3)c2)c(-c2ccc(Cl)cc2)n1C(C)C (configuration not stated) shows IC50 equal to > 10 µM

----------
Would you mind telling me the reported viability, T/C of each entry?
tested on: 126254-015-R-J1-PDC complex spheroid growth, % test/control; assay: Anticancer human tumor 126254-015-R-J1-PDC cell line growth inhibition [Asc]; conditions: second compound 0.316 µM; first compound 0.00316 µM; stronger effect = lower value;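 note: spheroids exposed to compound for seven days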;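 for viability, T/C: 100% = DMSO vehicle control wells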
Answer in %, number only, no unit symbol.

// viability, T/C lookup, molecule = Cn1ncnc1[C@H]1c2n[nH]c(=O)c3cc(F)cc(c23)N[C@@H]1c1ccc(F)cc1 + Cc1c(S(C)(=O)=O)c(-c2cc(F)cc(N3CCN(c4ccc(NS(=O)(=O)c5ccc(NC(CCN6CCC(C(=O)OCCCP(=O)(O)O)CC6)CSc6ccccc6)c(S(=O)(=O)C(F)(F)F)c5)cc4)CC3)c2)c(-c2ccc(Cl)cc2)n1C(C)C , result: 71.6

response.value for CCN1CCN(Cc2ccc(Nc3ncc(F)c(-c4cc(F)c5nc(C)n(C(C)C)c5c4)n3)nc2)CC1 + Cc1c(S(C)(=O)=O)c(-c2cc(F)cc(N3CCN(c4ccc(NS(=O)(=O)c5ccc(NC(CCN6CCC(C(=O)OCCCP(=O)(O)O)CC6)CSc6ccccc6)c(S(=O)(=O)C(F)(F)F)c5)cc4)CC3)c2)c(-c2ccc(Cl)cc2)n1C(C)C (field: viability, T/C) = 87.8

Form field viability, T/C, entry COc1c(OCCCN2CCOCC2)ccc2c3n(c(=NC(=O)c4cnc(N)nc4)nc12)CCN3 + Cc1c(S(C)(=O)=O)c(-c2cc(F)cc(N3CCN(c4ccc(NS(=O)(=O)c5ccc(NC(CCN6CCC(C(=O)OCCCP(=O)(O)O)CC6)CSc6ccccc6)c(S(=O)(=O)C(F)(F)F)c5)cc4)CC3)c2)c(-c2ccc(Cl)cc2)n1C(C)C : 88

Input O=C(c1ccc(F)c(F)c1Nc1ccc(I)cc1F)N1CC(O)([C@@H]2CCCCN2)C1 + CNC(C)C(=O)NC1CN(S(=O)(=O)c2cccc(S(=O)(=O)N3CCC4CCC(C(=O)NC(c5ccccc5)c5ccccc5)N4C(=O)C(NC(=O)C(C)NC)C3)c2)CCC2CCC(C(=O)NC(c3ccccc3)c3ccccc3)N2C1=O . Output viability, T/C: 62.5

Recorded result, COc1c(OCCCN2CCOCC2)ccc2c3n(c(=NC(=O)c4cnc(N)nc4)nc12)CCN3 + CNC(C)C(=O)NC1CN(S(=O)(=O)c2cccc(S(=O)(=O)N3CCC4CCC(C(=O)NC(c5ccccc5)c5ccccc5)N4C(=O)C(NC(=O)C(C)NC)C3)c2)CCC2CCC(C(=O)NC(c3ccccc3)c3ccccc3)N2C1=O , viability, T/C: 60.8

Query CCN1CCN(Cc2ccc(Nc3ncc(F)c(-c4cc(F)c5nc(C)n(C(C)C)c5c4)n3)nc2)CC1 + CNC(C)C(=O)NC1CN(S(=O)(=O)c2cccc(S(=O)(=O)N3CCC4CCC(C(=O)NC(c5ccccc5)c5ccccc5)N4C(=O)C(NC(=O)C(C)NC)C3)c2)CCC2CCC(C(=O)NC(c3ccccc3)c3ccccc3)N2C1=O yields viability, T/C of 57.8

Sample Cn1ncnc1[C@H]1c2n[nH]c(=O)c3cc(F)cc(c23)N[C@@H]1c1ccc(F)cc1 + CNC(C)C(=O)NC1CN(S(=O)(=O)c2cccc(S(=O)(=O)N3CCC4CCC(C(=O)NC(c5ccccc5)c5ccccc5)N4C(=O)C(NC(=O)C(C)NC)C3)c2)CCC2CCC(C(=O)NC(c3ccccc3)c3ccccc3)N2C1=O ; viability, T/C observed: 59.2

Input NC1CCC(NC2CC2c2ccccc2)CC1 (centres undefined) + CNC(C)C(=O)NC1CN(S(=O)(=O)c2cccc(S(=O)(=O)N3CCC4CCC(C(=O)NC(c5ccccc5)c5ccccc5)N4C(=O)C(NC(=O)C(C)NC)C3)c2)CCC2CCC(C(=O)NC(c3ccccc3)c3ccccc3)N2C1=O . Output viability, T/C: 65

Consider O=C(c1ccc(F)c(F)c1Nc1ccc(I)cc1F)N1CC(O)([C@@H]2CCCCN2)C1 + Cc1c(S(C)(=O)=O)c(-c2cc(F)cc(N3CCN(c4ccc(NS(=O)(=O)c5ccc(NC(CCN6CCC(C(=O)OCCCP(=O)(O)O)CC6)CSc6ccccc6)c(S(=O)(=O)C(F)(F)F)c5)cc4)CC3)c2)c(-c2ccc(Cl)cc2)n1C(C)C . Its measured viability, T/C is 88.5

----------
system: 126254-015-R-J1-PDC complex spheroid growth, % test/control; assay: Anticancer human tumor 126254-015-R-J1-PDC cell line growth inhibition [Asc]; settings: second compound 0.3 µM; first compound 10 µM; active = viability on the fitted dose curve at most 10% of control; inactive = the rest;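 note: spheroids exposed to compound for seven days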
Bench note: report the call from active, inactive

Which outcome was entered for the molecule C=C(F)C(=O)N1CCN(c2nc(OCC3CCCN3C)nc3c2CCN(c2cccc4cccc(Cl)c24)C3)CC1CC#N (centres undefined) + CCN1C(C(=O)NC23CCC(C(=O)O)(CC2)CC3)C(c2cccc(Cl)c2F)C2(C(=O)Nc3cc(Cl)ccc32)C12CCCCC2 in this test?
active

For O=C(c1cc(Cc2n[nH]c(=O)c3ccccc23)ccc1F)N1CCN(C(=O)C2CC2)CC1 + CCN1C(C(=O)NC23CCC(C(=O)O)(CC2)CC3)C(c2cccc(Cl)c2F)C2(C(=O)Nc3cc(Cl)ccc32)C12CCCCC2 , which call appears in the assay record?
inactive

What outcome does the record of this test show for C#Cc1c(F)ccc2cc(O)cc(-c3ncc4c(N5CC6CCC(C5)N6)nc(OCC56CCCN5CC(F)C6)nc4c3F)c12 (centres undefined) + CCN1C(C(=O)NC23CCC(C(=O)O)(CC2)CC3)C(c2cccc(Cl)c2F)C2(C(=O)Nc3cc(Cl)ccc32)C12CCCCC2 ?
inactive

I would be grateful if you could indicate the recorded call for C=CC(=O)N1CCN(c2nc(=O)n(-c3c(C)ccnc3C(C)C)c3nc(-c4c(O)cccc4F)c(F)cc23)C(C)C1 (centres undefined) + CCN1C(C(=O)NC23CCC(C(=O)O)(CC2)CC3)C(c2cccc(Cl)c2F)C2(C(=O)Nc3cc(Cl)ccc32)C12CCCCC2 .
inactive

----------
system: 126254-015-R-J1-PDC complex spheroid growth, % test/control; assay: Anticancer human tumor 126254-015-R-J1-PDC cell line growth inhibition [Asc]; conditions: second compound 0.316 µM; first compound 0.01 µM; stronger effect = lower value;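 note: spheroids exposed to compound for seven days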;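 for viability, T/C: 100% = DMSO vehicle control wells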
quantity: viability, T/C (%)
Field format: number, assumed %, no unit text.

# viability, T/C of CNC(C)C(=O)NC1CN(S(=O)(=O)c2cccc(S(=O)(=O)N3CCC4CCC(C(=O)NC(c5ccccc5)c5ccccc5)N4C(=O)C(NC(=O)C(C)NC)C3)c2)CCC2CCC(C(=O)NC(c3ccccc3)c3ccccc3)N2C1=O (configuration not stated) + Cc1c(S(C)(=O)=O)c(-c2cc(F)cc(N3CCN(c4ccc(NS(=O)(=O)c5ccc(NC(CCN6CCC(C(=O)OCCCP(=O)(O)O)CC6)CSc6ccccc6)c(S(=O)(=O)C(F)(F)F)c5)cc4)CC3)c2)c(-c2ccc(Cl)cc2)n1C(C)C = 81.9

NC1CCC(NC2CC2c2ccccc2)CC1 (configuration not stated) + CNC(C)C(=O)NC1CN(S(=O)(=O)c2cccc(S(=O)(=O)N3CCC4CCC(C(=O)NC(c5ccccc5)c5ccccc5)N4C(=O)C(NC(=O)C(C)NC)C3)c2)CCC2CCC(C(=O)NC(c3ccccc3)c3ccccc3)N2C1=O yielded viability, T/C of 54.5

----------
system: 126254-015-R-J1-PDC complex spheroid growth, % test/control; experiment: Anticancer human tumor 126254-015-R-J1-PDC cell line growth inhibition [Asc]; details: second compound 1 µM; first compound 0.316 µM; stronger effect = lower value;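 note: spheroids exposed to compound for seven days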;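 for viability, T/C: 100% = DMSO vehicle control wells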
quantity: viability, T/C

I looked up CCN1CCN(Cc2ccc(Nc3ncc(F)c(-c4cc(F)c5nc(C)n(C(C)C)c5c4)n3)nc2)CC1 + CNC(C)C(=O)NC1CN(S(=O)(=O)c2cccc(S(=O)(=O)N3CCC4CCC(C(=O)NC(c5ccccc5)c5ccccc5)N4C(=O)C(NC(=O)C(C)NC)C3)c2)CCC2CCC(C(=O)NC(c3ccccc3)c3ccccc3)N2C1=O and its viability, T/C for 126254-015-R-J1-PDC complex spheroid growth, % test/control was 57.2%

Recorded viability, T/C for COc1c(OCCCN2CCOCC2)ccc2c3n(c(=NC(=O)c4cnc(N)nc4)nc12)CCN3 + Cc1c(S(C)(=O)=O)c(-c2cc(F)cc(N3CCN(c4ccc(NS(=O)(=O)c5ccc(NC(CCN6CCC(C(=O)OCCCP(=O)(O)O)CC6)CSc6ccccc6)c(S(=O)(=O)C(F)(F)F)c5)cc4)CC3)c2)c(-c2ccc(Cl)cc2)n1C(C)C on 126254-015-R-J1-PDC complex spheroid growth, % test/control was 14.9%

Item C=CC(=O)N1CCN(c2nc(=O)n(-c3c(C)ccnc3C(C)C)c3nc(-c4c(O)cccc4F)c(F)cc23)C(C)C1 (stereo not drawn) + Cc1c(S(C)(=O)=O)c(-c2cc(F)cc(N3CCN(c4ccc(NS(=O)(=O)c5ccc(NC(CCN6CCC(C(=O)OCCCP(=O)(O)O)CC6)CSc6ccccc6)c(S(=O)(=O)C(F)(F)F)c5)cc4)CC3)c2)c(-c2ccc(Cl)cc2)n1C(C)C was tested on 126254-015-R-J1-PDC complex spheroid growth, % test/control; the reported viability, T/C is 91.2%
